B1: SH3 and PX domain-containing protein 2B, residues 155 to 209; numbered along this chain, A1X283 (parent)
chain: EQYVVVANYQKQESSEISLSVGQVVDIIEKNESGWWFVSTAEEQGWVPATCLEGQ

- Variants of: B1
- run_description: abundance fitness (aPCA) (normalised: wild type 0, dead -1); higher = more abundant; growth selection in yeast, the domain comes from the species named
- assay_conditions: Homo sapiens
Category | rule: reported abundance fitness within range, see low end: < -0.5; middle: ≥ -0.5 and < -0.08; high end: ≥ -0.08

Could you tell me which band EQYVVVANYQKQENSEISLSVGQVVDIIEKNESGWWFVSTAEEQGWVPATCLEGQ [S14N] belongs to?
high end

Could you tell me which band EQYVVVANYQKQESSEISLSVGQVVDIIEKNESGWWLVSTAEEQGWVPATCLEGQ [F37L] belongs to?
high end

Could you tell me which band EQYVVVANYQKQESSEISLSVGQVVDIIEKNESGWWRVSTAEEQGWVPATCLEGQ [F37R] belongs to?
high end
